- Tested on: HBV
- Protocol: HBsAg inhibition in HBV infected dHepaRG cells, transfection, single oligonucleotides and combinations (Example 9, Tables 20-22)
- Format: cell-based, hepatitis B virus
- Assay Setup: single PAPD7 targeting oligonucleotide, HBV infected dHepaRG cells, 500 nM, day 5 post-transfection
Observed Property: % HBsAg Inhibition Avg
State the result as a value with its unit after it.

Query :: Query % HBsAg Inhibition Avg for 153_1 (antisense CAgtagtaaccacCAAG; gapmer 2-11-4: modified flanks, DNA gap, flank chemistry and linkages not given here, as printed in the source, key not given here)
Result :: −17.8%

Query :: Query % HBsAg Inhibition Avg for 244_1 (CAGTtttatgctaatCA; gapmer 4-11-2, DNA gap, flank modification type not given here, as printed in the source, key not given here)
Result :: −12.9%

Query :: Query % HBsAg Inhibition Avg for 174_1 (antisense CGgtaagggttcggTG; gapmer 2-12-2: flanks modified nucleosides, DNA gap, flank chemistry and linkages not given here, as printed in the source, key not given here)
Result :: −6.8%

Query :: Query % HBsAg Inhibition Avg for 239_1 (TGgtaaacactggGC; gapmer: modified nucleoside flanks, DNA gap, modification type not given here, as printed in the source, key not given here)
Result :: 88.0%

---

- Tested on: PAPD7 mRNA
- Protocol: PAPD7 mRNA inhibition in HBV infected dHepaRG cells, gymnosis (Example 6, Table 17)
- Assay type: cell-based, human
- Assay Setup: 20 μM, day 11 post-infection, average of 3, vs PBS
l = locked nucleic acid (LNA); d = 2'-deoxy (DNA)
Would you kindly list % mRNA inhibition Avg for each of these substances?
Numbers only; they are read as %.

Query :: Query % mRNA inhibition Avg for 229_1 (antisense AGTAAACCACTGTCCA; sugars from the 5' end l2 d11 l3, backbone and methylation of C not given here)
Result :: 96.6

Query :: Query % mRNA inhibition Avg for 224_1 (antisense TCACagacaagcaccAA; gapmer 4-11-2, DNA gap, flank modification and linkages not given here, as printed in the source, key not given here)
Result :: 97.7

Query :: Query % mRNA inhibition Avg for 232_1 (antisense CGATTTTATCACCAACA; sugars from the 5' end l4 d11 l2, backbone and methylation of C not given here)
Result :: 95.5

Query :: Query % mRNA inhibition Avg for 195_1 (antisense GTgaattaaagccaAAGC; gapmer: modified flanks, DNA gap, flank modification and linkages not given here, as printed in the source, key not given here)
Result :: 85.9

Query :: Query % mRNA inhibition Avg for 194_1 (antisense GTAggtaaagggcaaaggAA; gapmer: modified flanks, DNA gap, flank modification and linkages not given here, as printed in the source, key not given here)
Result :: 65.4

Query :: Query % mRNA inhibition Avg for 188_1 (antisense GCAaatgtaagcctttTT; LNA gapmer modifications, as printed in the source, key not given here)
Result :: 89.2

Query :: Query % mRNA inhibition Avg for 183_1 (antisense CATTGCTTTTATAATCCTA; sugars from the 5' end l4 d13 l2, backbone and methylation of C not given here)
Result :: 96.3

Query :: Query % mRNA inhibition Avg for 191_1 (antisense TAgtgaaaatatttggAGTT; LNA gapmer implied, flank and gap sizes given, nucleotide key not given here, as printed in the source, key not given here)
Result :: 93.4

Query :: Query % mRNA inhibition Avg for 244_1 (CAGTtttatgctaatCA; gapmer 4-11-2, DNA gap, flank modification type not given here, as printed in the source, key not given here)
Result :: 98.7
